- System: Proteus morgani 179
- method.description: MIC in vitro (Table 1), Proteus morgani 179
- Format: cell-based
- experimental.setup: read-out: MIC
reported.metric: log10 of MIC (log10 of the value in µg/mL)
In our notation, the value equals log10 of MIC in µg/mL.

{"columns": ["compound", "measurement.target", "observed.measurement"],
 "data": [
  ["NC(=O)Cn1nnnc1SCC1=C(C(=O)O)N2C(=O)C(NC(=O)[C@H](O)c3ccccc3)[C@H]2SC1 (some centres unmarked)", "Proteus morgani 179", 0.49]
]}

Ask: Please report the recorded log10 of MIC for NC(=O)CCn1nnnc1SCC1=C(C(=O)O)N2C(=O)C(NC(=O)CSC(F)(F)F)[C@H]2SC1 (some centres unmarked) .
Result: 1.10

Ask: Moving on to O=C(O)CCCCCn1nnnc1SCC1=C(C(=O)O)N2C(=O)C(NC(=O)[C@H](O)c3ccccc3)[C@H]2SC1 (some centres unmarked)
Result: 0.20

====

Reported MIC is given for each of the following compounds.
- Tested on: Kleb. pneumo. SK 1200
- method.description: MIC in vitro (Table 1), Kleb. pneumo. SK 1200
- Assay type: cell-based

{"columns": ["compound", "measurement.target", "observed.measurement"],
 "data": [
  ["O=C(O)CCCn1nnnc1SCC1=C(C(=O)O)N2C(=O)C(NC(=O)[C@H](O)c3ccccc3)[C@H]2SC1 (stereo partly shown) [XII]", "Kleb. pneumo. SK 1200", "1.6 µg/mL"],
  ["NC(=O)CCn1nnnc1SCC1=C(C(=O)O)N2C(=O)C(NC(=O)CSC(F)(F)F)[C@H]2SC1 (stereo partly shown) [XVI]", "Kleb. pneumo. SK 1200", "0.4 µg/mL"],
  ["O=C(O)Cn1nnnc1SCC1=C(C(=O)O)N2C(=O)C(NC(=O)CSC(F)(F)F)[C@H]2SC1 (stereo partly shown) [XVIII]", "Kleb. pneumo. SK 1200", "0.4 µg/mL"]
]}

Let's switch to this compound now.
Ask: Query for Kleb. pneumo. SK 1200: what MIC does the record show for NC(=O)CCCn1nnnc1SCC1=C(C(=O)O)N2C(=O)C(NC(=O)CSC(F)(F)F)[C@H]2SC1 (stereo partly shown) [XX] ?
Result: 0.4 µg/mL

====

- Tested on: Kleb. pneumo. SK 4200
- method.description: MIC in vitro (Table 1), Kleb. pneumo. SK 4200
- Assay type: cell-based
Criterion: MIC strictly under 2 µg/mL. Met: satisfied. Not met: not satisfied.

Examples from the recorded data:
{"columns": ["compound", "assigned.class"],
 "data": [
  ["CN(C)C(=O)Cn1nnnc1SCC1=C(C(=O)O)N2C(=O)C(NC(=O)[C@H](N)c3ccc(O)cc3)C2SC1 (some centres unmarked) [IX]", "not satisfied"],
  ["O=C(O)CCCCCn1nnnc1SCC1=C(C(=O)O)N2C(=O)C(NC(=O)[C@H](O)c3ccccc3)[C@H]2SC1 (some centres unmarked) [XIII]", "satisfied"],
  ["NC(=O)CCn1nnnc1SCC1=C(C(=O)O)N2C(=O)C(NC(=O)[C@H](O)c3ccccc3)[C@H]2SC1 (some centres unmarked) [VII]", "satisfied"]
]}

Ask: Threshold test, MIC < 2 µg/mL: CNC(=O)Cn1nnnc1SCC1=C(C(=O)O)N2C(=O)C(NC(=O)[C@H](O)c3ccccc3)[C@H]2SC1 (some centres unmarked) [III]
Result: not satisfied

Ask: Moving on to NC(=O)CCCn1nnnc1SCC1=C(C(=O)O)N2C(=O)C(NC(=O)CSC(F)(F)F)[C@H]2SC1 (some centres unmarked) [XX]
Result: satisfied

====

- Tested on: Proteus morgani 179
- method.description: MIC in vitro (Table 1), Proteus morgani 179
- Format: cell-based
- experimental.setup: read-out: MIC
- Excerpt: Compound names corresponding to numbers are given in the experimental section. For comparative purposes, data for cephamandole, which is 7-mandelamido-3-(1-methyltetrazol-5-ylthiomethyl)-3-cephem-4-carboxylic acid, is also given in Tables 1 and 2.
Reported MIC is given for each of the following compounds.

{"columns": ["compound", "MIC"],
 "data": [
  ["N[C@@H](C(=O)NC1C(=O)N2C(C(=O)O)=C(CSc3nnnn3CC(=O)O)CS[C@H]12)c1ccc(O)cc1 (some centres unmarked) [II]", "> 200 µg/mL"],
  ["NC(=O)CCn1nnnc1SCC1=C(C(=O)O)N2C(=O)C(NC(=O)[C@H](N)c3ccc(O)cc3)[C@H]2SC1 (some centres unmarked) [X]", "25 µg/mL"],
  ["NC(=O)Cn1nnnc1SCC1=C(C(=O)O)N2C(=O)C(NC(=O)CSC(F)(F)F)[C@H]2SC1 (some centres unmarked) [XVII]", "200 µg/mL"],
  ["CN(C)C(=O)Cn1nnnc1SCC1=C(C(=O)O)N2C(=O)C(NC(=O)[C@H](N)c3ccc(O)cc3)C2SC1 (some centres unmarked) [IX]", "100 µg/mL"]
]}

Let's switch to this compound now.
Ask: Please report the recorded MIC for NC(=O)CCCn1nnnc1SCC1=C(C(=O)O)N2C(=O)C(NC(=O)CSC(F)(F)F)[C@H]2SC1 (some centres unmarked) [XX] .
Result: 12.5 µg/mL

====

- Tested on: Kleb. pneumo. SK 4200
- method.description: MIC in vitro (Table 1), Kleb. pneumo. SK 4200
- Format: cell-based
Reported MIC is given for each of the following compounds.
Express it in µg/mL; write the number only.

Check out these entries, answers already filled in.
{"columns": ["compound", "measurement.target", "result.units", "MIC"],
 "data": [
  ["O=C(O)Cn1nnnc1SCC1=C(C(=O)O)N2C(=O)C(NC(=O)CSC(F)(F)F)[C@H]2SC1 (stereo partly drawn)", "Kleb. pneumo. SK 4200", "µg/mL", 0.4],
  ["O=C(O)Cn1nnnc1SCC1=C(C(=O)O)N2C(=O)C(NC(=O)[C@H](O)c3ccccc3)[C@H]2SC1 (stereo partly drawn)", "Kleb. pneumo. SK 4200", "µg/mL", 1.6]
]}

Let's switch to this compound now.
Ask: Please report the recorded MIC for NC(=O)CCn1nnnc1SCC1=C(C(=O)O)N2C(=O)C(NC(=O)[C@H](N)c3ccc(O)cc3)[C@H]2SC1 (stereo partly drawn) .
Result: 1.6
